Target: human epidermal growth factor receptor 2 (HER2) (human, UniProt P04626 23-1255)
Experiment: cell-based or functional assay
readout_type: % cells killed (maximal), AU565 cells, anti-kappa-ETA'-conjugated antibody (%)
Numbers only here, please. The scale is %.

Look up % cells killed (maximal), AU565 cells, anti-kappa-ETA'-conjugated antibody: HER2 antibody 129 (antibody, V domains shown) VH: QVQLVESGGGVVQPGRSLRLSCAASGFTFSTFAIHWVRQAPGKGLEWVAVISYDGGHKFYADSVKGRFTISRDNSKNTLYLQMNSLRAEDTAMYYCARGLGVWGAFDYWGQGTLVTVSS VL: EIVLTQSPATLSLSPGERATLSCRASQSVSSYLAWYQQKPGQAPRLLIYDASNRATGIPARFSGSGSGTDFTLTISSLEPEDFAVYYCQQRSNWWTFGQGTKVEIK
60.8

Look up % cells killed (maximal), AU565 cells, anti-kappa-ETA'-conjugated antibody: HER2 antibody 025 (antibody, V domains shown, also called HuMab-025; PC1014-025) VH: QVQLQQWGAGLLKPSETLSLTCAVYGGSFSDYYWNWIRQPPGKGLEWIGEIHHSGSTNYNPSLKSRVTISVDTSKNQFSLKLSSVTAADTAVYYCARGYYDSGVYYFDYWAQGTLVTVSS VL: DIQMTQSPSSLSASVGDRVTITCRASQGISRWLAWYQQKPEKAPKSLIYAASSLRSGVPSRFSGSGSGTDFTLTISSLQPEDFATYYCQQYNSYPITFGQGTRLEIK
60

Look up % cells killed (maximal), AU565 cells, anti-kappa-ETA'-conjugated antibody: HER2 antibody 091 (antibody, V domains shown) VH: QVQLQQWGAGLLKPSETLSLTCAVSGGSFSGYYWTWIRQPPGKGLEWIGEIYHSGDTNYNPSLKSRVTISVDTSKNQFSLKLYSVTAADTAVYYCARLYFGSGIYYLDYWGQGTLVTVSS VL: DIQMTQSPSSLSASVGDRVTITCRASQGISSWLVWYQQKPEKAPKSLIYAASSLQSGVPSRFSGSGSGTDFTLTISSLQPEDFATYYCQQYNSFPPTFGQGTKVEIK
50.6
